- SYSTEM: T1, human DR3 (full length, on cells) (human, UniProt Q93038 25-417)
- T1 sequence: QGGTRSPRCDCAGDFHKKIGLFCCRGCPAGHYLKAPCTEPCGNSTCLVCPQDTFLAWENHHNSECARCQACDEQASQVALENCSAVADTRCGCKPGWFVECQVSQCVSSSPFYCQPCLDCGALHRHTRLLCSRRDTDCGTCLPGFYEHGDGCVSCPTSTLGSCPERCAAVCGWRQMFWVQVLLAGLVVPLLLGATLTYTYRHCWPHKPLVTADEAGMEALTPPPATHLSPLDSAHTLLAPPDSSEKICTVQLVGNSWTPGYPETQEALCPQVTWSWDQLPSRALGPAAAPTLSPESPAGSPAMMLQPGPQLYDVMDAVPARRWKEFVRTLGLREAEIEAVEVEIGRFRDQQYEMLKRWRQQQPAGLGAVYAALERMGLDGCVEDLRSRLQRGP
- ASSAY SUMMARY: cell-based or functional assay
PROPERTY LABEL: IFN-γ, TL1A-costimulated lymphocytes, Fab 0.03 µg/mL (ng/mL)
Answers are plain numbers, in ng/mL.

Entry 0170 (humanized IgG1 Fab of 0072; HC T28A S49A Y91; LC Q3A T5A S60A M4) (Fab, V domains shown) VH: EVQLVESGGGLVQPGGSLRLSCAASGFTFSNYDMSWVRQAAGKGLEWVSAFSSDGYTFYPGAVKGRFTISRENAKNSLYLQMNSLRAGDTAVYYCARHADYANYPVMDYWGQGTLVTVSS VL: DIAMAQSPSSLSASVGDRVTITCRASKSVSTSGYSYMHWYQQKPGKAPKLLIYLASNLEAGVPSRFSGSGSGTDFTLTISSLQPEDFATYYCQHSRELPLTFGGGTKVEIK — recorded IFN-γ, TL1A-costimulated lymphocytes, Fab 0.03 µg/mL = 108
